The origin of these recorded values is paper PMC12040169.

Overview of recorded viability at 28.5 h, 10 µM for various molecules
- experimentalDetails: in vitro
- conditionParameters: human, hela cells, % viability

Consider the reported viability at 28.5 h, 10 µM for these molecules:
COc1ccc(NC(=O)/C(=C\c2ccc3c(c2)OCO3)NC(=O)c2ccco2)cc1 [CBK263607] = 86.3%
c1ccc(C(CCN2CCC[C@@H]2CN2CCCC2)c2ccccc2)cc1 [CBK149109] = 89.7%
CCCC/C=C/c1cn2ccnc2c(NCc2cc(OC)c(OC)c(OC)c2)n1 [CBK066331] = 93.1%
CCOC(=O)C1(C2CCCCC2)CCN(C(=O)CC2CCCCC2)CC1 [CBK136919] = 96.2%
Cc1cc2c(cc1C)NC(CC(=O)Nc1ccc(Cl)cc1)C(=O)N2 (stereo not drawn) [CBK263245] = 83.4%

Which measured viability at 28.5 h, 10 µM value corresponds to CN(C)Cc1cn([C@H]2CO[C@H]3[C@@H]2OC[C@@H]3NC(=O)NC2CCCCC2)nn1 [CBK289493] ?
88.9%

Again, but for CCOc1ccc2[nH]c(C(=O)NC3CCCOC3)cc2c1 (stereo not drawn) [CBK283114]
101%

Again, but for O=C(NCCN1CCOCC1)C1CCN(C(=O)c2cccc(F)c2)CC1 [CBK304627]
85.8%

Again, but for O=C(Cn1c2ccccc2c2ccccc21)Sc1nc2ccccc2[nH]1 [CBK263788]
103%

Again, but for OCCN(CCO)Cc1ccc(Cl)c(Cl)c1 [CBK261919]
88.1%

Again, but for N/C(=N\OC(=O)COc1cccc2ccccc12)c1ccccn1 [CBK262999]
96.2%

Again, but for CCCn1c(O)cc(=O)nc1SCC(=O)NCc1ccc(OC)c(OC)c1 [CBK295592]
101%

Again, but for Cc1ccc(-c2csc(NC(=O)CS(=O)(=O)c3ccccc3)n2)cc1 [CBK287707]
89.2%

Again, but for O=C(CSc1nnc(-c2cccs2)n1-c1ccccc1)c1c[nH]c2ccccc12 [CBK268452]
101%

###

- experimentalDetails: in vitro
- conditionParameters: human, hela cells, % viability
testReadout: viability at 28.5 h, 10 µM (%)
Express the result in % but write the number alone.

Consider the reported viability at 28.5 h, 10 µM for these molecules:
COc1ccccc1NC(=O)NC(=O)C1CCN(CCc2cccs2)CC1 [CBK034912] = 87.5
COc1cc(CNCc2cccnc2)ccc1OCc1cccs1 [CBK270082C] = 86.7
CCCCCOc1ccc(Nc2ccc(-c3cccnc3)cn2)cc1 [CBK036948] = 109
CCOC(=O)c1cccc(NS(=O)(=O)c2ccc(Br)cc2)c1 [CBK034346] = 97.7

Which measured viability at 28.5 h, 10 µM value corresponds to CC(Cn1cnc2ccccc21)C(=O)N1CCCCC1CN(C)C (centres unmarked) [CBK282191] ?
106

###

- experimentalDetails: in vitro
- conditionParameters: human, hela cells, % viability
testReadout: viability at 28.5 h, 10 µM
Note: state the figure and append the unit.

Consider the reported viability at 28.5 h, 10 µM for these compounds:
N#Cc1ccsc1NC(=O)CN1CCC(CNc2ccccn2)C1 (stereo not shown) = 105%
COCCN1CCn2c(nc3cc(NC(=O)c4cccc([N+](=O)[O-])c4)ccc32)C1 = 98.9%

Which measured viability at 28.5 h, 10 µM value corresponds to O=C(c1ccco1)N1CCN(c2cncc(-c3cccc4cccnc34)n2)CC1 ?
96.9%

Again, but for O=C(CC1Nc2ccccc2NC1=O)Nc1cccc(C(F)(F)F)c1 (stereo not shown)
99.6%

Again, but for O=C(O)CCC(=O)Nc1cccc(NC(=O)c2ccc(Br)cc2)c1
84.6%

Again, but for CCN(CC)CCCNc1oc(-c2ccc(Cl)cc2)nc1C#N
126%

###

- experimentalDetails: in vitro
- conditionParameters: human, hela cells, % viability
Labelling: viability at 28.5 h, 10 µM reported below 90% becomes t; at or above becomes f.

CC(C)(C)OC(=O)NC1CCC(NCc2ccncc2)CC1 (stereo not drawn) = f

Field: below-cutoff. Rule: recorded viability at 28.5 h, 10 µM strictly less than 90%. Subject: O=C(c1ccccc1)N1C[C@H](c2ccsc2)[C@H]2CN(Cc3cccs3)CC[C@H]21
f

Again, but for Cc1nc(CN2CCCN(S(=O)(=O)c3ccc(C(=O)c4ccccc4)cc3)CC2)c[nH]1
f

Again, but for CNC(=O)C1(Cc2ccc(-c3ccccc3)cc2)CCN(C(=O)c2ccccc2OC)CC1
t

Again, but for Cc1ccc(N2C(=O)c3ccccc3NC23C(=O)N(C)c2ccc(Br)cc23)cc1 (stereo not drawn)
t

Again, but for COc1ccc(C2(NCc3ccc4c(c3)n(C)c(=O)n4C)CC2)cc1
f

Again, but for NC(=O)CN1CCCN(c2nccc(OCC3COc4ccccc4O3)n2)CC1 (stereo not drawn)
f

Again, but for O=C(O)C1C2C=CC(C2)C1C(=O)NCc1ccncc1 (stereo not drawn)
f

Again, but for CNCC1CCCN(Cc2cn(-c3ccc(Br)cc3)nc2C)C1 (stereo not drawn) [CBK304301C]
f

Again, but for Cc1ccc(C(=O)NC(C)c2nnc(SCC(=O)c3ccc(Br)cc3)n2C)cc1 (stereo not drawn)
f

Again, but for COc1ccc(-c2nc3ccc(C)cc3c(C(=O)NCCc3ccc(S(N)(=O)=O)cc3)c2C)cc1
f

###

Overview of recorded viability at 28.5 h, 10 µM for various compounds
- experimentalDetails: in vitro
- conditionParameters: human, hela cells, % viability

Consider the reported viability at 28.5 h, 10 µM for these compounds:
COc1cc2[nH]c(=O)c(C(=O)NCCc3ccc(Cl)cc3)c(O)c2cc1OC = 91.3%
Fc1cccc(COc2nc3ccccc3n3nnnc23)c1 = 114%
Cc1nnc([C@H]2CCN(Cc3ccc(F)cc3)C2)o1 = 88.4%
Cc1ccc(C(C)C)c(OCC(=O)NS(=O)(=O)c2ccc(Br)cc2)c1 = 101%

Which measured viability at 28.5 h, 10 µM value corresponds to CCCCNS(=O)(=O)c1ccccc1[N+](=O)[O-] ?
93.1%

###

- experimentalDetails: in vitro
- conditionParameters: human, hela cells, % viability
testReadout: viability at 28.5 h, 10 µM (%)
Express the result in % but write the number alone.

Consider the reported viability at 28.5 h, 10 µM for these molecules:
O=C(N[C@@H](Cc1ccc(O)cc1)C(=O)O)OCc1ccccc1 = 94.8
Cc1ccc(C2NS(=O)(=O)NC2=N)cc1 (stereo not shown) = 95.2
CSc1nc(N/N=C/c2ccc(Cl)cc2)c2c3c(sc2n1)CN(C)CC3 = 107
Cc1nn(C2CCCO2)c(=O)nc1N (stereo not shown) = 101
CCOC(=O)NC(=O)C(C#N)/C=N/NC(=O)CCCNc1ncc(C(F)(F)F)cc1Cl (stereo not shown) = 101
CCN(c1ccccc1)S(=O)(=O)c1ccc(C(=O)NC(C)c2ccc3c(c2)OCCO3)cc1 (stereo not shown) = 83.5
COc1cccc([C@H]2CN(C(=O)c3ccccc3)[C@@H]3CCN(Cc4cccc(F)c4)C[C@H]23)c1 = 92.6
CC(C)(C)NC(=O)CN1CCC(c2ccccc2F)CC1 = 92.1

Which measured viability at 28.5 h, 10 µM value corresponds to CN1CCC(N(C)C(=O)NCCOc2ccccc2)C1 (stereo not shown) ?
107

Again, but for COc1ccc2[nH]cc(CCNC(=O)c3cc(C)[nH]n3)c2c1
89.8

###

- experimentalDetails: in vitro
- conditionParameters: human, hela cells, % viability
testReadout: viability at 28.5 h, 10 µM (%)
Express the result in % but write the number alone.

Consider the reported viability at 28.5 h, 10 µM for these compounds:
COc1ccccc1NC(=O)C1C2NC(=S)NC1(C)Oc1c(OC)cccc12 (stereo not shown) [CBK269013] = 107
CNC(=O)Nc1ccc(C(C)(C)C)cc1Br [CBK086434] = 111
O=C(COC(=O)C1CCN(S(=O)(=O)c2cccc3cccnc23)CC1)c1cccc([N+](=O)[O-])c1 [CBK264435] = 97
COc1ccc(CCNC(=O)c2cnoc2-c2ccc(C)cc2)cc1 [CBK153731] = 119
Oc1ccc(SCCCCCN2CCCCC2)cc1 [CBK261488] = 92.3
C[C@H](C(=O)N1CCCC1)C1CC[C@@]2(C)Cc3sc(NC(=O)C4CC4)nc3[C@@H](C)[C@@H]2[C@H]1O (stereo partly shown) [CBK289432] = 103
CCc1cccc2c(C=C3C(=O)N(CC(=O)O)C(=O)c4ccccc43)c[nH]c12 [CBK295153] = 81.5
COCCn1cnnc1C(C)NC(=O)c1nc2ccccc2[nH]1 (stereo not shown) [CBK307366] = 101
O=C1c2cccc([N+](=O)[O-])c2C(=O)N1c1cc(Cl)cc(Cl)c1 [CBK115326] = 112
Fc1ccc2nc(Nc3nc(-c4ccncc4)cs3)sc2c1 [CBK287487] = 105

Which measured viability at 28.5 h, 10 µM value corresponds to Cc1csc(N2CCN(C(=O)CCc3nc(C(C)C)no3)CC2)n1 [CBK305341] ?
99.4

Again, but for Cc1nccn1Cc1ccccc1C(=O)NCCn1ccnc1 [CBK281580]
84.7

Again, but for COc1ccc(-c2nnc(NC(=O)C3CCCCC3)o2)cc1 [CBK287592]
83.3

Again, but for COC(=O)c1ccc(Nc2cccc(-c3cccc(N)c3)n2)cc1OC [CBK037619]
102

Again, but for NCCNC(=O)c1cc2cc(F)ccc2[nH]1 [CBK107345]
95.8

Again, but for COc1ccc(C(NC(=O)NNC(=O)CCC(=O)c2ccc(F)cc2)c2ccccc2C)cn1 (stereo not shown) [CBK083659]
99

Again, but for O=C(NC1CCCCC1)c1ccc(-c2ccccc2)nc1NCCc1ccccn1 [CBK076553]
101

Again, but for O=C(NCCCn1ccnc1)c1cc(-c2ccc(Br)cc2)nc2ccccc12 [CBK262645]
84.8

Again, but for Cc1c(C(=O)NCCCN2CCOCC2)oc2c1C(=O)CCC2 [CBK270207]
93.1
